Reference for the values: ChEMBL document CHEMBL4422618

experiment: Genotoxicity in Escherichia coli PQ35 at 500 uM after overnight incubation by SOS chromotest; format: toxicity

{"COMPOUND": "C=Cc1onc(-c2ccc(OC)cc2)c1-c1ccc(OC)cc1", "Activity": "Non-Toxic"}
{"COMPOUND": "COc1ccc(-c2noc(CC(=O)O)c2-c2ccc(OC)cc2)cc1 [MOFEZOLAC]", "Activity": "Non-Toxic"}
{"COMPOUND": "O=[N+]([O-])c1cc[n+]([O-])c2ccccc12 [4-NITROQUINOLINE-1-OXIDE]", "Activity": "Toxic"}
{"COMPOUND": "CC(=O)Oc1ccccc1C(=O)O [ASPIRIN]", "Activity": "Non-Toxic"}

* * *

Parameter inhibition: see the listing below.
molecular target: Prostaglandin G/H synthase 1 (Ovis aries) (UniProt P05979); assay: Inhibition of ovine COX1 at 50 uM using arachidonic acid as substrate by colorimetric assay relative to control
Sequence (P05979 whole entry): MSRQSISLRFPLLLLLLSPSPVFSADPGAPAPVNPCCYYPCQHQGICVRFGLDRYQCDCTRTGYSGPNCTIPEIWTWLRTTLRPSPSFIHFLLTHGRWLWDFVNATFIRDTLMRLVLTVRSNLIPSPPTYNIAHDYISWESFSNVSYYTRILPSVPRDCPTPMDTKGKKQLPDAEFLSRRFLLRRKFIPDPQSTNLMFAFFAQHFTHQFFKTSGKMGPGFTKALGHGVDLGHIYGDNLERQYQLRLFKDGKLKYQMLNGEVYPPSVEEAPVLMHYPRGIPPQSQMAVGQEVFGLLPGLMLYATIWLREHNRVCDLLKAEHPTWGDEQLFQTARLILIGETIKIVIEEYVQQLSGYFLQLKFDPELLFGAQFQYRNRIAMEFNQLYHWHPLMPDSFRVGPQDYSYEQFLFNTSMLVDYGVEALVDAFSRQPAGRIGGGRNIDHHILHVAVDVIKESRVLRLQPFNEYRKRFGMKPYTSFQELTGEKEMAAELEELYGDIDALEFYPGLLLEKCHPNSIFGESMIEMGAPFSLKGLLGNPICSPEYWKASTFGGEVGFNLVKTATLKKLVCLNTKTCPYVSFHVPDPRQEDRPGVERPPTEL
Lab book: enter the figure in %, no units written.

Known inhibition results, listed for orientation:
{"SMILES INPUT": "COc1ccc(-c2c(-c3ccc(F)cc3)noc2C)cc1", "SYSTEM NAME": "Prostaglandin G/H synthase 1 (Ovis aries) (UniProt P05979)", "inhibition (%)": 94}
{"SMILES INPUT": "COc1ccc(-c2noc(CBr)c2-c2ccc(OC)cc2)cc1", "SYSTEM NAME": "Prostaglandin G/H synthase 1 (Ovis aries) (UniProt P05979)", "inhibition (%)": 93}
{"SMILES INPUT": "Nc1onc(-c2ccc([N+](=O)[O-])cc2)c1-c1ccc(F)cc1", "SYSTEM NAME": "Prostaglandin G/H synthase 1 (Ovis aries) (UniProt P05979)", "inhibition (%)": 71}
{"SMILES INPUT": "COc1ccc(-c2c(-c3ccc(F)cc3)noc2N)cc1", "SYSTEM NAME": "Prostaglandin G/H synthase 1 (Ovis aries) (UniProt P05979)", "inhibition (%)": 83}
{"SMILES INPUT": "COc1ccc(-c2noc(CF)c2-c2ccc(OC)cc2)cc1", "SYSTEM NAME": "Prostaglandin G/H synthase 1 (Ovis aries) (UniProt P05979)", "inhibition (%)": 100}
{"SMILES INPUT": "COc1ccc(-c2noc(N)c2-c2ccc(OC)cc2)cc1", "SYSTEM NAME": "Prostaglandin G/H synthase 1 (Ovis aries) (UniProt P05979)", "inhibition (%)": 89}
{"SMILES INPUT": "COc1ccc(-c2c(-c3ccc(N)cc3)noc2CC(=O)O)cc1", "SYSTEM NAME": "Prostaglandin G/H synthase 1 (Ovis aries) (UniProt P05979)", "inhibition (%)": 33}
{"SMILES INPUT": "C=Cc1onc(-c2ccc(OC)cc2)c1-c1ccc(OC)cc1", "SYSTEM NAME": "Prostaglandin G/H synthase 1 (Ovis aries) (UniProt P05979)", "inhibition (%)": 100}

Prompt: API: value(readout=inhibition, system=Prostaglandin G/H synthase 1 (Ovis aries) (UniProt P05979)) for record COc1ccc(-c2c(-c3ccc(NC(C)=O)cc3)noc2CC(=O)O)cc1
Response: 79

Prompt: API: value(readout=inhibition, system=Prostaglandin G/H synthase 1 (Ovis aries) (UniProt P05979)) for record COc1ccc(-c2c(-c3ccc(F)cc3)noc2CC(=O)O)cc1
Response: 92

Prompt: API: value(readout=inhibition, system=Prostaglandin G/H synthase 1 (Ovis aries) (UniProt P05979)) for record COc1ccc(-c2c(-c3ccc(N)cc3)noc2C)cc1
Response: 53

Prompt: API: value(readout=inhibition, system=Prostaglandin G/H synthase 1 (Ovis aries) (UniProt P05979)) for record Cc1onc(-c2ccc(S(C)(=O)=O)cc2)c1-c1ccc(F)cc1
Response: 24

Prompt: API: value(readout=inhibition, system=Prostaglandin G/H synthase 1 (Ovis aries) (UniProt P05979)) for record COc1ccc(-c2noc(CCO)c2-c2ccc(OC)cc2)cc1
Response: 100
